Target: human insulin-like growth factor-I (IGF-I) (human, UniProt P05019 49-118)
Assay: cell-based or functional assay
measured.parameter: EC50 (nM), n = 1, IGF-I pTYR, BxPC3 cells
The figure you give is taken to be in nM; do not add the unit.

[
  {
    "binder": "mAb 7.159.2 (antibody, V domains shown, Fully human XenoMouse hybridoma mAb, lambda light chain (V1-19/JL2); Sister clones 7.159.1 and 7.159.2 are said to be identical; also called 7.159.1; 7_159_1) VH: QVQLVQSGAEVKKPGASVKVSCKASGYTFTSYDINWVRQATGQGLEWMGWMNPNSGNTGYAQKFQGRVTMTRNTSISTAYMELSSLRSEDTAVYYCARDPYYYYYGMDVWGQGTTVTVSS VL: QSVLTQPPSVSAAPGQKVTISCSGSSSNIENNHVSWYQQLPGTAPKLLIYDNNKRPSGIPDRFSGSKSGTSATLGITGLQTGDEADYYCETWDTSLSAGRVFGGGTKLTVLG",
    "value": 3.3
  }
]

Read the next record carefully.
Provide measured EC50 (nM), n = 1, IGF-I pTYR, BxPC3 cells value, entry: mAb 7.251.3 (antibody, V domains shown, Fully human XenoMouse hybridoma mAb, lambda light chain (V1-13/JL2); also called ATCC PTA-7422) VH: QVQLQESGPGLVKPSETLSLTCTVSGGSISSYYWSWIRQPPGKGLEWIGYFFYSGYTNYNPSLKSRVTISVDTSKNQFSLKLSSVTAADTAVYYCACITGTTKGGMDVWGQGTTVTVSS VL: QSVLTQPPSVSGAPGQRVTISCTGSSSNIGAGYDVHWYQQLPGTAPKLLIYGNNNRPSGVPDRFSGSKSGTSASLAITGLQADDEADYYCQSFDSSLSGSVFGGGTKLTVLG
7.5
